Assay: Lipophilicity, 1-octanol/phosphate buffer pH 7.4
Type: physicochemical
Details: read-out: Lipophilicity LogD7.4
ASSAY METRIC: logD at 2 h
Respond using a number only.

Problem: Record request: logD at 2 h value, item CCN(CC)c1ccc2nc3c4ccccc4/c(=N\c4ccccn4)cc-3oc2c1
Solution: 1

Problem: Query CCN(CC)c1ccc2nc3ccc(=[N+](CC)CC)cc-3sc2c1 next
Solution: 0.2

###

Assay: Kinetic solubility in PBS
Assay type: physicochemical
Settings: phosphate buffer saline (PBS), aqueous buffer, kinetic from dmso stock, PBS pH 2, read-out: Predicted solubility pH 2
ASSAY METRIC: solubility at 2 h

Problem: Record request: solubility at 2 h value, item CCNC(=S)NN=C(c1ccccn1)c1ccccn1
Solution: > 150 µM

Problem: Query CCN(CC)c1ccc2nc3ccc(=[N+](CC)CC)cc-3sc2c1 next
Solution: > 150 µM

Problem: Query CCN(CC)c1ccc2nc3c4ccccc4/c(=N\c4ccccn4)cc-3oc2c1 next
Solution: > 150 µM
